Exercise: for every item that follows, state its recorded TGI.
system: U251 CNS; test: NCI tumour cell line growth inhibition, 48 h

molecule	TGI
O=C1NC(O)CCN1C1OC(CO)C(O)C1O (stereo not drawn)	> 169 µM
C=C(C)CNCCN	> 100 µM
O=Cc1cc2c(cc1-c1cc3c(cc1C=O)OCO3)OCO2	> 100 µM
C=CC1(C)CC(=O)C2(O)C(C)(O1)C(OC(C)=O)C(O)C1C(C)(C)CCC(O)C12C (stereo not drawn)	> 94.6 µM
CN(Cc1cnc2nc(N)nc(N)c2n1)c1ccc(C(=O)N[C@@H](CCS(=O)(=O)O)C(=O)O)cc1	> 100 µM
Cc1nc2ccccc2c(-n2cccn2)c1CCn1cccn1	> 100 µM
CNCCCNc1ccnc2cc(Cl)ccc12	62.4 µM
O=C(O)C(O)C(O)C(O)C(O)CO (stereo not drawn)	> 100 µM
O=C(NN1C(=O)CS(=O)(=O)C1c1ccc(C(F)(F)F)cc1)c1ccncc1 (stereo not drawn)	> 100 µM
O=c1[nH]c(O)c(C=Nc2ccc(-c3nc4ccccc4o3)cc2)c(=O)[nH]1	75.9 µM

// each listed molecule needs a value for TGI
1. Cc1c2c(c(C)n1-c1ccccc1)C(=O)N(CCN1CCN(c3cccc(C(F)(F)F)c3)CC1)C2=O
2. CNc1nncc2[nH]cnc12
3. CC(C)(C)OC(=O)NC(CSSCC(NC(=O)OC(C)(C)C)C(=O)O)C(=O)O (stereo not drawn)
4. COc1cc(OC)c(OC)cc1/C=N/NC(=O)N/N=C/c1cc(OC)c(OC)cc1OC
5. Cc1ccc(/C=C2/N=C(N/N=C\C(O)C(O)C(O)C(O)CO)NC2=O)cc1 (stereo not drawn)
6. COc1ccc2oc(=N)c(C(=O)Nc3ccccc3)cc2c1
7. CC(C)N1CCN(c2ccc(OCC3COC(Cn4cncn4)(c4ccc(Cl)cc4Cl)O3)cc2)CC1 (stereo not drawn)
8. O=c1onc2n1-c1cc(Cl)ccc1C(=S)N1CSCC21 (stereo not drawn)

1. > 100 µM
2. > 100 µM
3. > 100 µM
4. > 100 µM
5. > 100 µM
6. 55.1 µM
7. 26.7 µM
8. > 100 µM

// each listed molecule needs a value for TGI
1. FC(F)(F)c1ccc2nc(NCc3ccccc3)c(-c3ccccc3)nc2c1
2. O=C(OCC(Cl)(Cl)Cl)N1CC[C@H](C2CCCCC2)C1

1: 86.8 µM; 2: 13.6 µM

// each listed molecule needs a value for TGI
1. C=C(CN(C)C)C(=O)c1ccc(C(=O)C(=C)CN(C)C)cc1
2. Cc1ccsc1/C=N/Nc1cnccn1
3. c1ccc2c(c1)CCc1c(-c3ccncc3)n[nH]c1-2

1. > 100 µM
2. > 100 µM
3. 57.8 µM

----------
tested on: UACC-62 melanoma; assay: NCI tumour cell line growth inhibition, 48 h
Exercise: for every item that follows, state its recorded TGI.

Would you please look over these solved cases?
compound	TGI
N#CC(I)CS(=O)(=O)c1ccccc1 (centres undefined)	30.3 µM
O=C(c1ccc([N+](=O)[O-])cc1[N+](=O)[O-])N(/N=C/C=C/c1ccccc1)c1nnc(-c2ccccc2)c(-c2ccccc2)n1	70.4 µM
Cc1ccnc(NC(=S)Nc2ccc([N+](=O)[O-])cc2)c1	> 100 µM

// each listed compound needs a value for TGI
1. O=[N+]([O-])c1cc2oc(CSc3ccccc3)nc2cc1Cl
2. C=C(C)[C@@H]1CC[C@]2(CN)CC[C@]3(C)[C@H](CC[C@@H]4[C@@]5(C)CCCNC(C)(C)[C@@H]5CC[C@]43C)[C@@H]12
3. CCc1c(O)c(O)c(C(C)=O)c2c(O)c(-c3c(C)cc4c(CC)c(O)c(O)c(C(C)=O)c4c3O)c(C)cc12
4. O=C(CC(=O)Nc1ccccc1)NNC(Sc1ccccc1)c1cc(N=Nc2ccc(Br)cc2)ccc1O (centres undefined)
5. CSc1nc2c(c(N(C)C)n1)C(O)n1c(nc3ccccc31)S2 (centres undefined)
6. COCOCCC#CCO
7. CC[C@]1(O)C[C@H]2CN(CCc3c([nH]c4ccccc34)C(C(=O)OC)(c3cc4c(cc3OC)N(C)[C@H]3[C@@](O)(C(=O)OC)[C@H](OC(C)=O)[C@]5(CC)[C@@H]6C[C@@H]6CN6CC[C@]43[C@@H]65)C2)C1 (some centres undefined)
8. Nc1ncc2c(n1)-c1ccccc1OC2N1CCCC1 (centres undefined)

> 100 µM
3.42 µM
24.7 µM
9.81 µM
> 100 µM
> 100 µM
> 14.3 µM
> 100 µM

// each listed compound needs a value for TGI
1. CC(C)(C)c1ccc2c(c1)C#Cc1cc3c(cc1OCCCO2)C#Cc1cc(C(C)(C)C)ccc1OCCCO3
2. COc1cc(OC)c(OC)cc1/C=N/NC(=O)N/N=C/c1cc(OC)c(OC)cc1OC
3. O=c1[nH]c(-c2cccc(F)c2)cc2cc(F)ccc12
4. CCc1n[nH]c(=O)n1-c1ccc2ccccc2c1

1: > 100 µM; 2: > 100 µM; 3: > 100 µM; 4: > 100 µM

// each listed compound needs a value for TGI
1. CCCCCCn1c(-c2ccc(C(=O)O/N=C(\N)c3ccc4c(c3)OCO4)cc2)nc(-c2ccccc2)c1-c1ccccc1
2. O=C(O)c1cccc(S(=O)(=O)NN2C(=O)CSC2c2ccc(Cl)cc2Cl)c1 (centres undefined)
3. COc1ccc(/C=N/NC(=O)c2ccc(O)c(CN(C)C)c2)cc1
4. Cc1nc2ccccc2c(-n2cccn2)c1CCn1cccn1

["10.5 µM", "86.3 µM", "> 100 µM", "> 100 µM"]
